experiment.notes: physchem
particulars: aqueous buffer
Ends that are not written are not given here.
measurement.kind: solubility

Given the substance REEKLFNVTSTLRINT-NH2 [L7] , what is its reported solubility?
< 10000 µg/mL

Hello, the source for this data is paper PMC11274521, in case you need it.
